target or system: UniProtKB Q7Z3E1
Sequence (Q7Z3E1 whole entry): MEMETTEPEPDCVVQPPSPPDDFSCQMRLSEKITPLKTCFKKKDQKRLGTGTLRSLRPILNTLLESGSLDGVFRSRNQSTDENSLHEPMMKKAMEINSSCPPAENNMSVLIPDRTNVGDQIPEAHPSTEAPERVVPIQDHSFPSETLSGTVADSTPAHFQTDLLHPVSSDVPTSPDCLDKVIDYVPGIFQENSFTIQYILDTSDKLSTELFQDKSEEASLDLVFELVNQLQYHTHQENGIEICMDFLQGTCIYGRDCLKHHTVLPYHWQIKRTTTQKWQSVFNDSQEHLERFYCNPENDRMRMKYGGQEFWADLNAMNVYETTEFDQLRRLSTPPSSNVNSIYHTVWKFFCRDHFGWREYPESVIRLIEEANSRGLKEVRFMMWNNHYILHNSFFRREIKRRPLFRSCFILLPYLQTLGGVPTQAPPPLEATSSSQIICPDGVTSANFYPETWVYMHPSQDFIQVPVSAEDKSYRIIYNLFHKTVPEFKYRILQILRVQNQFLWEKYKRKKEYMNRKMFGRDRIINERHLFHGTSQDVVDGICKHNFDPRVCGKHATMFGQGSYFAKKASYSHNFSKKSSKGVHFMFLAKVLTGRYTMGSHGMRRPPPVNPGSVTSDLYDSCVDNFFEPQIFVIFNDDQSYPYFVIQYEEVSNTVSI
run description: PARP7 enzymatic HTRF assay
Assay type: binding
assay conditions: 6 nM PARP7 enzyme solution, RBN011147 probe, 25° C. 3 hrs
measurement name: IC50 (µM)
Give just the number in µM; leave the unit off.

Recall the recorded IC50 for "Cc1c2n(c3ncc(C(F)(F)F)cc13)CCN(C(=O)CCOC[C@H](C)Oc1cn[nH]c(=O)c1C(F)(F)F)C2" with UniProtKB Q7Z3E1 and state it. 0.00158
